- Tested on: Saccharomyces cerevisiae
- experimental details: protein stability index of tFT-peptide fusion (C-terminal peptide) (PSI (0-1 scale)); higher = more stable (slower turnover)
- measurement conditions: genetic background: wild type; temperature: 30 C
Each item that follows carries a reported protein stability index.
Answer with a bare number; do not write a unit.

construct_sequence=PPPVLPPPPVSP observable="protein stability index" readout_number=0.719
construct_sequence=RIGRHLATSRRV observable="protein stability index" readout_number=0.679
construct_sequence=CLDRRCTSRGCI observable="protein stability index" readout_number=0.717
construct_sequence=ETVFESFEVKCG observable="protein stability index" readout_number=0.68
construct_sequence=FSFNGMTRNCLR observable="protein stability index" readout_number=0.715
construct_sequence=AFGRLNTWFCFP observable="protein stability index" readout_number=0.719

With those in mind, consider the next sequence.
[ask] What value of protein stability index has been reported for the following sequence? GLCRVANGGTER
[reply] 0.695

====

Each item that follows carries a reported protein stability index.
- Tested on: Saccharomyces cerevisiae
- experimental details: protein stability index of tFT-peptide fusion (C-terminal peptide) (PSI (0-1 scale)); higher = more stable (slower turnover)
- measurement conditions: genetic background: wild type; temperature: 30 C
Answer with a bare number; do not write a unit.

Observe how each entry below is paired with its result.
construct_sequence=LGGGGLRSRGAG readout_number=0.785
construct_sequence=GSNLQWNSKREE readout_number=0.616
construct_sequence=RTGSCSCQRKPE readout_number=0.663
construct_sequence=KKKKQNKRKRKT readout_number=0.635

With those in mind, consider the next sequence.
[ask] Enter reported protein stability index observed with Saccharomyces cerevisiae for IGGAPRIETIYP
[reply] 0.704

====

- Tested on: Saccharomyces cerevisiae
- experimental details: protein stability index of tFT-peptide fusion (C-terminal peptide) (PSI (0-1 scale)); higher = more stable (slower turnover)
- measurement conditions: genetic background: das1 deletion; temperature: 30 C
Each item that follows carries a reported protein stability index.
Answer with a bare number; do not write a unit.

construct_sequence="GCDLDISYAKRL [HRB1 C-terminal 12 aa]" readout_number=0.716

With those in mind, consider the next sequence.
[ask] What value of protein stability index has been reported for the following sequence? LNPIRSLRYCNY [YPP1 C-terminal 12 aa]
[reply] 0.716

====

- Test system: Saccharomyces cerevisiae
- experimental details: protein stability index of tFT-peptide fusion (C-terminal peptide) (PSI (0-1 scale)); higher = more stable (slower turnover)
- measurement conditions: genetic background: wild type; temperature: 30 C
Short version: protein stability index at least 0.7 is Yes, less is No.

Recorded results for 3 sequences are shown here.
construct_sequence="IFRDYFYKSPSP [PIG1 C-terminal 12 aa]" class_assignment=Yes
construct_sequence="LLMVGVPLLFSS [YPR159C-A C-terminal 12 aa]" class_assignment=No
construct_sequence="FGIWNTDMSVWS [YBL081W C-terminal 12 aa]" class_assignment=Yes

Next up:
[ask] In plain terms: is recorded protein stability index at least 0.7 for LLLPITSSLLFI [MIN4 C-terminal 12 aa] ?
[reply] No

====

- System: Saccharomyces cerevisiae
- experimental details: protein stability index of tFT-peptide fusion (C-terminal peptide) (PSI (0-1 scale)); higher = more stable (slower turnover)
- measurement conditions: genetic background: wild type; temperature: 30 C
Categorize each record by its protein stability index using band A (below 0.6), band B (0.6 to below 0.7), band C (0.7 or more)

construct_sequence=KGGCPTASARVL class_assignment="band A"
construct_sequence=WPGYLTNVLPVI class_assignment="band B"
construct_sequence=SGPCSPRNLRRL class_assignment="band A"
construct_sequence=KGNRGKDAVKTE class_assignment="band C"

[ask] For the record GLCFRVCIWVFV , report the class its protein stability index corresponds to.
[reply] band A

[ask] For the record SLHSPPHPPPHA , report the class its protein stability index corresponds to.
[reply] band B

[ask] For the record DRQRVGYRGPPH , report the class its protein stability index corresponds to.
[reply] band B

[ask] For the record GGGVWGGVFFRL , report the class its protein stability index corresponds to.
[reply] band B

[ask] For the record GFALSFCFCFPL , report the class its protein stability index corresponds to.
[reply] band A

[ask] For the record MAINAGYYKWRH , report the class its protein stability index corresponds to.
[reply] band C

[ask] For the record CSFCVLGPGLHL , report the class its protein stability index corresponds to.
[reply] band B

[ask] For the record SPTSPAPPPNAS , report the class its protein stability index corresponds to.
[reply] band B

====

- Tested on: Saccharomyces cerevisiae
- experimental details: protein stability index of tFT-peptide fusion (C-terminal peptide) (PSI (0-1 scale)); higher = more stable (slower turnover)
- measurement conditions: genetic background: cdc53-1; temperature: 37 C
Each item that follows carries a reported protein stability index.
Answer with a bare number; do not write a unit.

construct_sequence=RLPVMFWFVCSF readout_number=0.641

[ask] What value of protein stability index has been reported for the following sequence? GGFRVLLWCVVW
[reply] 0.324

[ask] What value of protein stability index has been reported for the following sequence? FFSRSLGAGVAA
[reply] 0.747

[ask] What value of protein stability index has been reported for the following sequence? VTGYLSTLTMLC
[reply] 0.654

====

Each item that follows carries a reported protein stability index.
- Tested on: Saccharomyces cerevisiae
- experimental details: protein stability index of tFT-peptide fusion (C-terminal peptide) (PSI (0-1 scale)); higher = more stable (slower turnover)
- measurement conditions: genetic background: wild type; temperature: 30 C
Answer with a bare number; do not write a unit.

Observe how each entry below is paired with its result.
construct_sequence="GDEEDPNEEAAF [RPC31 C-terminal 12 aa]" readout_number=0.673
construct_sequence="LREMMNKDFAGL [PSD2 C-terminal 12 aa]" readout_number=0.698
construct_sequence="VTVSNVWFNQLQ [YPL197C C-terminal 12 aa]" readout_number=0.526

With those in mind, consider the next sequence.
[ask] What value of protein stability index has been reported for the following sequence? FVAKEIADDSKK [TIM12 C-terminal 12 aa]
[reply] 0.709

====

Each item that follows carries a reported protein stability index.
- Test system: Saccharomyces cerevisiae
- experimental details: protein stability index of tFT-peptide fusion (C-terminal peptide) (PSI (0-1 scale)); higher = more stable (slower turnover)
- measurement conditions: genetic background: wild type; temperature: 30 C
Answer with a bare number; do not write a unit.

construct_sequence=VAFFSVFYWLEC observable="protein stability index" readout_number=0.29
construct_sequence=FVICGMLVHWMV observable="protein stability index" readout_number=0.344
construct_sequence=VFCCHSSRFVFA observable="protein stability index" readout_number=0.501
construct_sequence=YPGMFLQLVWWI observable="protein stability index" readout_number=0.117
construct_sequence=KKKTKYSKDKLC observable="protein stability index" readout_number=0.217

[ask] What value of protein stability index has been reported for the following sequence? GSLGHCWFLFGV
[reply] 0.538

[ask] What value of protein stability index has been reported for the following sequence? KKKQAILRTLKI
[reply] 0.197

[ask] What value of protein stability index has been reported for the following sequence? SSVCVLVSCVLG
[reply] 0.382

[ask] What value of protein stability index has been reported for the following sequence? WVVVKITAHTAT
[reply] 0.222

[ask] What value of protein stability index has been reported for the following sequence? LLGDFAVLTCVF
[reply] 0.377

[ask] What value of protein stability index has been reported for the following sequence? DRQMRCVHIHYL
[reply] 0.301

[ask] What value of protein stability index has been reported for the following sequence? CTYSLSVLFVFF
[reply] 0.307

[ask] What value of protein stability index has been reported for the following sequence? TVCSWSALSRFM
[reply] 0.627

[ask] What value of protein stability index has been reported for the following sequence? LFLVFIGLFFLT
[reply] 0.327

====

- Test system: Saccharomyces cerevisiae
- experimental details: protein stability index of tFT-peptide fusion (C-terminal peptide) (PSI (0-1 scale)); higher = more stable (slower turnover)
- measurement conditions: genetic background: doa10 deletion; temperature: 30 C
observable: protein stability index
Answer with a bare number; do not write a unit.

construct_sequence=RGSRLVPRLLRP readout_number=0.64

[ask] What value of protein stability index has been reported for the following sequence? VAFFSVFYWLEC
[reply] 0.261

[ask] What value of protein stability index has been reported for the following sequence? RFIYYCVDVFFS
[reply] 0.0847

====

- System: Saccharomyces cerevisiae
- experimental details: protein stability index of tFT-peptide fusion (C-terminal peptide) (PSI (0-1 scale)); higher = more stable (slower turnover)
- measurement conditions: genetic background: wild type; temperature: 30 C
observable: protein stability index
Answer with a bare number; do not write a unit.

Observe how each entry below is paired with its result.
construct_sequence=PPPPPLPPPPTP observable="protein stability index" readout_number=0.652
construct_sequence=FLFLFLFPFSLI observable="protein stability index" readout_number=0.431
construct_sequence=GRVFSSFFLYIS observable="protein stability index" readout_number=0.0831

[ask] What value of protein stability index has been reported for the following sequence? GVEGAEFVEAGT
[reply] 0.699
